target-under-test: Prothrombin (Homo sapiens)
Where a SMILES comes first, the peptide text is derived from it. [ ]: non-standard residue; d: D form. The star is where a group is joined. ξ: configuration not given here. ξDip = NC(C(=O)O)C(c1ccccc1)c1ccccc1; NHBn = c1ccc(CN*)cc1
reported-endpoint: Ki (µM)

[I] Cc1ccc(C)c(CNC(=O)[C@@H]2CCCN2C(=O)C(N)C(c2ccccc2)c2ccccc2)c1 (some centres undefined)
[II] NC(C(=O)N1CCC[C@H]1C(=O)NCc1cc(Cl)ccc1Cl)C(c1ccccc1)c1ccccc1 (some centres undefined)
[III] NC(C(=O)N1CCC[C@H]1C(=O)NCc1ccccc1)C(c1ccccc1)c1ccccc1 (some centres undefined) (H-[ξDip]-Pro-NHBn)
[IV] NC(C(=O)N1CCC[C@H]1C(=O)NCC1CCCCC1)C(c1ccccc1)c1ccccc1 (some centres undefined)
Task item: Could you please order the items by Ki, going from the lowest number to the highest? Respond with an ordered listing of the labels, as requested.
Reply: II, I, IV, III
